All values here come from patent US20230250096A1.

System: KO-52 cells
TEST METHOD NOTES: Proliferation assay (spheroid confluence, 8 days), KO-52 control cell line
Format: cell-based, human
CONDITION PARAMETERS: Homo sapiens, read-out: spheroid assay_KO-52 IC50
# IC50 listing for each entry below
Give the quantity in µM, number only.

Take a look at these entries with their results.
COMPOUND: COC(=O)[C@H]1CC[C@@H](CN2CC[C@@H](Cc3cn(-c4ccc(F)cc4C(=O)N(C)C(C)C)c4cncc(C)c34)C2)CC1 [Compound 153]
IC50 [µM]: 7.9
//
COMPOUND: CNC(=O)[C@H]1CC[C@H](CN2CC(Cc3cn(-c4ccc(F)cc4C(=O)N(C)C(C)C)c4cncc(C)c34)C2)CC1 [Compound 74]
IC50 [µM]: 5.2
//
COMPOUND: Cc1cncc2c1c(CC1CN(C[C@@H]3CCOC3)C1)cn2-c1ccc(F)cc1C(=O)N(C)C(C)C (single isomer, unassigned) [Compound 191b]
IC50 [µM]: 7
//
COMPOUND: CC(=O)N1CCC(CN2CC[C@@H](Cc3cn(-c4ccc(F)cc4C(=O)N4CCC5CC54)c4cncc(C)c34)C2)CC1 (stereo partly drawn) [Compound 311]
IC50 [µM]: 5.2

In the following, a different compound is considered.
query: State the recorded IC50 for this entry: COC[C@H](C1CCCCO1)N1CC[C@@H](Cc2cn(-c3ccc(F)cc3C(=O)N(C)C(C)C)c3cncc(C)c23)C1 (single isomer, unassigned) [Compound 165b]
result: 1.9

----------
ASSAYED TARGET: menin/MLL (terbium chelate-labeled menin, FITC-MBM1 peptide) (Homo sapiens, UniProt O00255, T541A)
Construct: Menin (a.a 1-610-6xhis tag, 2.3 mg/mL in 20 mM Hepes)
Sequence (O00255 with tags, fused parts or gaps T541A): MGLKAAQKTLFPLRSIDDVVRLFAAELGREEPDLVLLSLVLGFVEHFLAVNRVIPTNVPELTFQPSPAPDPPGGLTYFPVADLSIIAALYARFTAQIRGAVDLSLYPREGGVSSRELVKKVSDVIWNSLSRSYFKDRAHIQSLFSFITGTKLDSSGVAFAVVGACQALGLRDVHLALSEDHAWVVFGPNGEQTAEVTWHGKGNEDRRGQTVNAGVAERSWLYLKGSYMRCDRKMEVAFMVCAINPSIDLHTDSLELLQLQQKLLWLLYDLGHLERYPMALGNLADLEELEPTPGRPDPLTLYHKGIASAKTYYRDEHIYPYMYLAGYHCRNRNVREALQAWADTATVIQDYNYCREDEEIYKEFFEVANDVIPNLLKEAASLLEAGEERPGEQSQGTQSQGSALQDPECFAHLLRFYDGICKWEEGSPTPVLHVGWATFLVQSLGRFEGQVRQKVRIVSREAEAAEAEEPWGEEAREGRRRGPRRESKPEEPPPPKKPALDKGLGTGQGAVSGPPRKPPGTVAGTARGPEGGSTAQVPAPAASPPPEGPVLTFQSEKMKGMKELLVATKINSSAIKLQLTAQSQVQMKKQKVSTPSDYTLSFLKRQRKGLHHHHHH
TEST METHOD NOTES: Menin/MLL homogenous time-resolved fluorescence (HTRF) assay
CONDITION PARAMETERS: 30 min incubation
METRIC: IC50 (pM)
Reply numerically in pM, unit not repeated.

COMPOUND: COC(=O)[C@H]1CC[C@H](CN2CC[C@@H](Cc3cn(-c4ccc(F)cc4C(=O)N(C)C(C)C)c4cncc(C)c34)C2)CC1
UNIT LABEL: pM
IC50: 140
--
COMPOUND: CC(=O)N1CCC([C@H](C)N2CC[C@@H](Cc3cn(-c4ccc(F)cc4[S@](=N)(=O)C(C)C)c4cncc(C)c34)C2)CC1 (single isomer, unassigned) [Compound 230b]
UNIT LABEL: pM
IC50: 5450
--
COMPOUND: Cc1cncc2c1c(CC1CN(CC(=O)N3CC4CC4C3)C1)cn2-c1ccc(F)cc1C(=O)N(C)C(C)C (stereo not drawn)
UNIT LABEL: pM
IC50: 1970
--
COMPOUND: Cc1cncc2c1c(C[C@H]1CCN(CC3CCOCC3)C1)cn2-c1ccc(F)cc1C(=O)N(C)C(C)C (single isomer, unassigned)
UNIT LABEL: pM
IC50: 27
--
COMPOUND: CC(=O)N1CCC(CN2CC[C@@H](Cc3cn(-c4ccc(F)cc4C(=O)N4CCC5CC54)c4cncc(C)c34)C2)CC1 (stereo partly drawn) [Compound 311]
UNIT LABEL: pM
IC50: 31
--
COMPOUND: Cc1cncc2c1c(C[C@H]1CCN(CC3CCN(C(=O)C(C)(C)O)CC3)C1)cn2-c1ccc(F)cc1C(=O)N(C)C(C)C
UNIT LABEL: pM
IC50: 101
--
COMPOUND: CC(=O)N1CC2(CC(CN3CCC(Cc4cn(-c5ccc(F)cc5C(=O)N(C)C(C)C)c5cncc(C)c45)C3)C2)C1 (stereo not drawn)
UNIT LABEL: pM
IC50: 188
--
COMPOUND: CC(=O)N1CCC([C@H](CO)N2CC[C@@H](Cc3cn(-c4ccc(F)cc4C(=O)N(C)C(C)C)c4cncc(C)c34)C2)CC1 (single isomer, unassigned) [Compound 206a]
UNIT LABEL: pM
IC50: 45

query: Given CCN(C(=O)c1cc(F)ccc1-n1cc(CC2CN(C(C(C)C)[C@H]3C[C@H](N4C[C@H]5CN(C(C)=O)C[C@@H]5C4)C3)C2)c2c(C)cncc21)C(C)C (mixture of isomers) [Compound 38b] , state its recorded IC50.
result: 13

query: Then CCN(C(=O)c1cc(F)ccc1-n1cc(CC2CN(C(C(C)C)[C@H]3C[C@H](N4CCN(C(C)=O)CC4)C3)C2)c2c(C)cncc21)C(C)C (stereo partly drawn) [Compound 35b] ?
result: 77

query: What about this compound? CC(=O)N1CCCC(N2CC[C@@H](Cc3cn(-c4ccc(F)cc4C(=O)N(C)C(C)C)c4cncc(C)c34)C2)CC1 (mixture of isomers)
result: 187

query: How about this compound: Cc1cncc2c1c(CC1CN(C3CC4(CC(NC(=O)OC(C)(C)C)C4)C3)C1)cn2-c1ccc(F)cc1C(=O)N(C)C(C)C (stereo not drawn)
result: 155
